experimentalDetails: Dissolution time of 1 gram in distilled water at room temperature
Type: physicochemical
conditionParameters: 1.000 Gram in 900 ml Distilled Water, 75 RPM, creatine types
parameter: Time (Minutes) to dissolve (min)
Numbers only; they are read as min.

Below, 6 compounds whose answers are already recorded.
INSERT INTO results (compound, parameter, unitannotation, observed) VALUES
  ('CN(CC(=O)O)C(=N)N.O=C(O)CC(O)(CC(=O)O)C(=O)O [Creatine Citrate]', 'Time (Minutes) to dissolve', 'min', 10.10),
  ('CCOC(=O)CN(C)C(=N)N.Cl [Creatine ethyl ester HCl]', 'Time (Minutes) to dissolve', 'min', 1.68),
  ('CN(CC(=O)O)C(=N)N.O=[N+]([O-])O [Creatine Nitrate]', 'Time (Minutes) to dissolve', 'min', 9.12),
  ('CC(C)C[C@H](NC(=O)CN(C)C(=N)N)C(=O)O', 'Time (Minutes) to dissolve', 'min', 9.05),
  ('CC(=O)NC(=N)N(C)CC(=O)O', 'Time (Minutes) to dissolve', 'min', 3.70),
  ('CN(CC(=O)N[C@@H](CCC(N)=O)C(=O)O)C(=N)N', 'Time (Minutes) to dissolve', 'min', 25.02);

// switching to the query compound
Name the reported Time (Minutes) to dissolve value associated with the compound CN(CC(=O)O)C(=N)N.O [Creatine Monohydrate] 14.42

###

experimentalDetails: Dissolution time of 1 gram in 0.1N HCl (pH 1.2)
Assay type: physicochemical
conditionParameters: 1.000 Gram in 900 ml 0.1N HCl in Water, pH = 1.2, 73 C., 75 RPM
# reported Time (Minutes) to dissolve; entries follow
Numbers only; they are read as min.

Below, 3 compounds whose answers are already recorded.
INSERT INTO results (compound, observed) VALUES
  ('CN(CC(=O)N[C@@H](CCC(N)=O)C(=O)O)C(=N)N', 6.33),
  ('CCOC(=O)CN(C)C(=N)N.Cl [Creatine ethyl ester HCl]', 0.95),
  ('CC(=O)NC(=N)N(C)CC(=O)O', 2.17);

// switching to the query compound
Name the reported Time (Minutes) to dissolve value associated with the compound CC(C)C[C@H](NC(=O)CN(C)C(=N)N)C(=O)O 3.08
